- experimental_system: Carbonic anhydrase 9 (Homo sapiens)
- assay_procedure: Inhibition of recombinant human carbonic anhydrase 9 by stopped-flow CO2 hydration assay
Kindly state pKi for each of the entries shown.
Hey, just a heads up that pKi is the negative log base 10 of the concentration in molar.

State the recorded pKi for this entry: NS(=O)(=O)c1ccc(CNC(=O)CCN2CCN(c3ccc(F)cc3)CC2)cc1 6.94

State the recorded pKi for this entry: NS(=O)(=O)c1ccc(CNC(=O)CCN2CCN(C(c3ccccc3)c3ccccc3)CC2)cc1 6.05

State the recorded pKi for this entry: COc1ccc(N2CCN(CCC(=O)NCc3ccc(S(N)(=O)=O)cc3)CC2)cc1 6.87

State the recorded pKi for this entry: NS(=O)(=O)c1ccc(CNC(=O)CCN2CCN(C(=O)OCc3ccccc3)CC2)cc1 6.59

State the recorded pKi for this entry: NS(=O)(=O)c1ccc(CNC(=O)CN2CCN(Cc3ccccc3)CC2)cc1 6.66

State the recorded pKi for this entry: NS(=O)(=O)c1ccc(CNC(=O)CN2CCN(Cc3ccc4c(c3)OCO4)CC2)cc1 5.80

State the recorded pKi for this entry: NS(=O)(=O)c1ccc(CNC(=O)CN2CCN(C(c3ccc(F)cc3)c3ccc(F)cc3)CC2)cc1 5.61

State the recorded pKi for this entry: NS(=O)(=O)c1ccc(CNC(=O)CN2CCN(C(=O)OCc3ccccc3)CC2)cc1 5.79

State the recorded pKi for this entry: NS(=O)(=O)c1ccc(CNC(=O)CN2CCN(c3ccc(C(F)(F)F)cc3)CC2)cc1 5.75

====

- experimental_system: Carbonic anhydrase 9 (Homo sapiens, UniProt Q16790)
- assay_procedure: Inhibition of recombinant human carbonic anhydrase 9 by stopped-flow CO2 hydration assay
Kindly state pKi for each of the entries shown.
Hey, just a heads up that pKi is the negative log base 10 of the concentration in molar.

State the recorded pKi for this entry: Cc1ccc(N2CCN(CCC(=O)NCc3ccc(S(N)(=O)=O)cc3)CC2)cc1 7.10

State the recorded pKi for this entry: NS(=O)(=O)c1ccc(CNC(=O)CCN2CCN(c3ccc(C(F)(F)F)cc3)CC2)cc1 6.86

State the recorded pKi for this entry: NS(=O)(=O)c1ccc(CNC(=O)CN2CCN(c3ccccn3)CC2)cc1 5.81

State the recorded pKi for this entry: NS(=O)(=O)c1ccc(CNC(=O)CCN2CCN(c3ccccc3)CC2)cc1 7.63

State the recorded pKi for this entry: NS(=O)(=O)c1ccc(CNC(=O)CCN2CCN(Cc3ccccc3)CC2)cc1 6.94

State the recorded pKi for this entry: NS(=O)(=O)c1ccc(CNC(=O)CCN2CCN(c3ccccn3)CC2)cc1 6.79

State the recorded pKi for this entry: NS(=O)(=O)c1ccc(CNC(=O)CN2CCN(c3ccc(F)cc3)CC2)cc1 6.64

State the recorded pKi for this entry: NS(=O)(=O)c1ccc(CNC(=O)CN2CCN(c3ccccc3)CC2)cc1 6.40

State the recorded pKi for this entry: NS(=O)(=O)c1ccc(CNC(=O)CCN2CCN(c3ncccn3)CC2)cc1 6.34

State the recorded pKi for this entry: COc1ccc(N2CCN(CC(=O)NCc3ccc(S(N)(=O)=O)cc3)CC2)cc1 5.96

State the recorded pKi for this entry: Cc1ccc(N2CCN(CC(=O)NCc3ccc(S(N)(=O)=O)cc3)CC2)cc1 5.82

State the recorded pKi for this entry: NS(=O)(=O)c1ccc(CNC(=O)CN2CCN(c3ccc(Cl)cc3)CC2)cc1 5.92

State the recorded pKi for this entry: NS(=O)(=O)c1ccc(CNC(=O)CN2CCN(C(c3ccccc3)c3ccccc3)CC2)cc1 5.77

State the recorded pKi for this entry: NS(=O)(=O)c1ccc(CNC(=O)CCN2CCN(c3ccc(Cl)cc3)CC2)cc1 6.93

State the recorded pKi for this entry: NS(=O)(=O)c1ccc(CNC(=O)CCN2CCN(C(c3ccc(F)cc3)c3ccc(F)cc3)CC2)cc1 7.01

State the recorded pKi for this entry: NS(=O)(=O)c1ccc(CNC(=O)CN2CCN(c3ncccn3)CC2)cc1 5.65

State the recorded pKi for this entry: NS(=O)(=O)c1ccc(CNC(=O)CCN2CCN(Cc3ccc4c(c3)OCO4)CC2)cc1 6.98

Each recorded value in this set is attributed to ChEMBL document CHEMBL4680105.
